target.system: A2A adenosine receptors (Rattus norvegicus, UniProt P30543)
Sequence (P30543 whole entry): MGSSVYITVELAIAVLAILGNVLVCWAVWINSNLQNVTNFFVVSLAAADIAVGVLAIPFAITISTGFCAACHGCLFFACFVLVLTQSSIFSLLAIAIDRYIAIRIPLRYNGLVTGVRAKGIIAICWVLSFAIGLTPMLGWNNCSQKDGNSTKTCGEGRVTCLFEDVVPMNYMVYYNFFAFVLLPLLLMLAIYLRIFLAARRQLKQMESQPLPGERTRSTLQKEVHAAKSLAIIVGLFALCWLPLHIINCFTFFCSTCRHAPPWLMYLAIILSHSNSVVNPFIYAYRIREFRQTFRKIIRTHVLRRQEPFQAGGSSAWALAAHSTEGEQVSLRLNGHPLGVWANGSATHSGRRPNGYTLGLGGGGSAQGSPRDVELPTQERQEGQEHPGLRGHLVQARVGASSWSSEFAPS
assay.explanation: Competitive radioligand binding, [3H]ZM241385, PC12 cell membranes
quantity.name: Ki (µM)
The figure you give is taken to be in µM; do not add the unit.

input: # input molecule: CNC(=O)c1cnn(-c2nc(N)c3ncn(C4O[C@@H](CO)[C@H](O)[C@@H]4O)c3n2)c1 (stereo partly shown) [CVT-3146] ; wanted: its Ki
output: 1.73

====

target.system: human A2A adenosine receptors (Homo sapiens)
Sequence (P29274 whole entry): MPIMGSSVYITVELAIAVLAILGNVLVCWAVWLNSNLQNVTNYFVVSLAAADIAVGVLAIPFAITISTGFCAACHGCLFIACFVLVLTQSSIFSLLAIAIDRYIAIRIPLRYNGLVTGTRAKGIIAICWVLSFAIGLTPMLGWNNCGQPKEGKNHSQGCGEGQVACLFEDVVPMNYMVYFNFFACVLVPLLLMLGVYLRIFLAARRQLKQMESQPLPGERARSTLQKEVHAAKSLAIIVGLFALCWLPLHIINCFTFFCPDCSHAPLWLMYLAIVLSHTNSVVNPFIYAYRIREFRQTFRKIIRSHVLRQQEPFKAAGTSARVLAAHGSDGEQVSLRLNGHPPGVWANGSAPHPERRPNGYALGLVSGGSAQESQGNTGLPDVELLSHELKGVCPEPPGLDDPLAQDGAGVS
assay.explanation: Competitive radioligand binding, [3H]ZM241385, HEK-hA2AAdoR membranes
test.conditions: Ki, HEK-hA2AAdoR
quantity.name: pKi
pKi is a log-scale quantity: -log10 of the concentration expressed in molar.

input: Requested read-out pKi, target or system human A2A adenosine receptors (Homo sapiens), entry Nc1nc(-c2cnn(Cc3ccccc3)c2)nc2c1ncn2C1O[C@@H](CO)[C@H](O)[C@@H]1O (stereo partly shown)
output: 4.86
